PROTOCOL_NOTES: gradient 5% acetonitrile 3 min, to 50% in 2 min, to 85% in 15 min, held 3 min, 100 µL/min
EXPERIMENTAL_PARAMETERS: column: Zorbax Extend-C18 2.1 x 50 mm; eluents: water / acetonitrile, 0.1% formic acid
MEASURED_QUANTITY: RP-LC retention time

INSERT INTO assay_data (compound, result) VALUES
  ('CCOc1ccccc1NC(=O)N1CCCC(Cn2cnc3cccnc32)C1 (stereo not given)', '723 s'),
  ('CCS(=O)(=O)Nc1cccc(-c2nc3cccnc3s2)c1', '720 s'),
  ('CCC(=O)Nc1c(C(=O)NC)oc2ccccc12', '712 s'),
  ('O=C(NCc1ccc(F)cc1Cl)c1cn(-c2ccc(NC(=O)C3CC3)cn2)cn1', '814 s'),
  ('C[C@H]1CN(C(=O)NCc2ccccc2)C[C@@H]1c1nc(-c2ccncc2)no1', '715 s'),
  ('O=C(NC1CCCC1)c1nc(-c2ccnc(N3CCCCC3)c2)no1', '763 s'),
  ('COc1ccccc1NC(=O)Cn1nc2c(Oc3ccccc3C)nccn2c1=O', '839 s'),
  ('Cc1ccccc1N1CCN(Cc2nc(-c3ccc(N4CCCC(C)C4)nc3)no2)CC1 (stereo not given)', '1160 s'),
  ('O=C(Cc1csc(NC(=O)NC2CCCCC2)n1)NCCc1ccc(Cl)cc1', '805 s'),
  ('COCCc1noc(-c2cnc3nc(C)ccc3c2Nc2cccc(C)c2)n1', '728 s'),
  ('Cc1ccc(Sc2ccc(N3CCCC(C(=O)NCc4ccccc4)C3)nn2)cc1 (stereo not given)', '905 s'),
  ('Cc1noc(-c2cccc(OC3CN(C(=O)c4ccco4)C3)c2)n1', '789 s'),
  ('CN(C)C(=O)c1ccc(N2CCc3ccccc32)s1', '907 s'),
  ('O=C(c1csc(N2CCN(c3ccc(Cl)cc3)CC2)n1)N1CCOCC1', '942 s'),
  ('Cc1nc2cc(-c3noc(-c4cccc(C(F)(F)F)c4)n3)ccc2o1', '1220 s'),
  ('COc1ccc(-c2csc(Nc3cc(C)ccn3)n2)cc1', '783 s'),
  ('COc1cc([C@@H]2c3cc4c(cc3[C@@H](O)[C@H]3COC(=O)[C@H]23)OCO4)cc(OC)c1O', '680 s'),
  ('NC(=O)Cc1ccc2c(c1)[nH]c1ccccc12', '756 s'),
  ('O=C(Nc1ccc(Cl)cc1C(=O)c1ccccc1)c1ccc(N2C(=O)CCC2=O)cc1', '896 s'),
  ('CCC1Oc2ccc(S(=O)(=O)N3CCC(C(=O)Nc4ccccc4)CC3)cc2NC1=O (stereo not given)', '794 s');
